System: Haemophilus influenzae
ASSAY_COMMENT: Antibacterial activity against Haemophilus influenzae isolate 283 by agar dilution method
Format: functional
MIC values, listed per item
ASSAY_ENDPOINT: MIC (µg/mL)

MOLECULE | QUANTITY_UNIT | OP | EXPERIMENTAL_VALUE
CCCCCCC(=O)N1CCN(c2ccc(N3C[C@H](Cn4cc(C)nn4)OC3=O)cc2F)CC1 | µg/mL | > | 64
Cc1cn(C[C@H]2CN(c3ccc(N4CCN(C(=O)Cc5ccccc5)CC4)c(F)c3)C(=O)O2)nn1 | µg/mL | > | 64
O=C1O[C@@H](Cn2ccnn2)CN1c1ccc(N2CCOCC2)c(F)c1 | µg/mL | = | 32
Cc1cn(C[C@H]2CN(c3ccc(N4CCN(C(=O)CC5CC6CCC5C6)CC4)c(F)c3)C(=O)O2)nn1 (some centres undefined) | µg/mL | > | 64
Cc1cn(C[C@H]2CN(c3ccc(N4CCN(C(=O)C5CC5)CC4)c(F)c3)C(=O)O2)nn1 | µg/mL | = | 32
Cc1cn(C[C@H]2CN(c3ccc(N4CCN(C(=O)C(Cl)Cl)CC4)c(F)c3)C(=O)O2)nn1 | µg/mL | = | 64
Cc1cn(C[C@H]2CN(c3ccc(N4CCN(C(=O)C5CCCC5)CC4)c(F)c3)C(=O)O2)nn1 | µg/mL | = | 32
Cc1cn(C[C@H]2CN(c3ccc(N4CCN(C(=O)C(Cl)(Cl)Cl)CC4)c(F)c3)C(=O)O2)nn1 | µg/mL | > | 64
Cc1cn(C[C@H]2CN(c3ccc(N4CCN(C(=O)C(F)(F)F)CC4)c(F)c3)C(=O)O2)nn1 | µg/mL | = | 64

---

System: Streptococcus pneumoniae
ASSAY_COMMENT: Antibacterial activity against Streptococcus pneumoniae by agar dilution method
Format: functional
log10(MIC) values, listed per item
ASSAY_ENDPOINT: log10(MIC) (log10 of the value in µg/mL)

COMPOUND | log10(MIC)
CC(=O)N1CCN(c2ccc(N3C[C@H](Cn4cc(C)nn4)OC3=O)cc2F)CC1 | 0.00
CCCCCCC(=O)N1CCN(c2ccc(N3C[C@H](Cn4cc(C)nn4)OC3=O)cc2F)CC1 | 0.90
Cc1cn(C[C@H]2CN(c3ccc(N4CCN(C(=O)CC5CC6CCC5C6)CC4)c(F)c3)C(=O)O2)nn1 (some centres undefined) | 1.20
Cc1cn(C[C@H]2CN(c3ccc(N4CCN(C(=O)C5CC5)CC4)c(F)c3)C(=O)O2)nn1 | 0.30
Cc1cn(C[C@H]2CN(c3ccc(N4CCN(C(=O)Cc5ccccc5)CC4)c(F)c3)C(=O)O2)nn1 | 0.30
CCCCC(=O)N1CCN(c2ccc(N3C[C@H](Cn4cc(C)nn4)OC3=O)cc2F)CC1 | 0.30
Cc1cn(C[C@H]2CN(c3ccc(N4CCN(C(=O)C5CCC5)CC4)c(F)c3)C(=O)O2)nn1 | 0.60
Cc1cn(C[C@H]2CN(c3ccc(N4CCN(C=O)CC4)c(F)c3)C(=O)O2)nn1 | 0.00
CCC(C)C(=O)N1CCN(c2ccc(N3C[C@H](Cn4cc(C)nn4)OC3=O)cc2F)CC1 (some centres undefined) | 0.60

---

Tested on: Staphylococcus aureus
ASSAY_COMMENT: Antibacterial activity against Staphylococcus aureus ATCC 25923 by agar dilution method
Format: functional
ASSAY_ENDPOINT: MIC (µg/mL)

COMPOUND_STRING | EXPERIMENTAL_VALUE
O=C1O[C@@H](Cn2ccnn2)CN1c1ccc(N2CCOCC2)c(F)c1 | 1
Cc1cn(C[C@H]2CN(c3ccc(N4CCN(C(=O)C(Cl)Cl)CC4)c(F)c3)C(=O)O2)nn1 | 2
CCCCCCC(=O)N1CCN(c2ccc(N3C[C@H](Cn4cc(C)nn4)OC3=O)cc2F)CC1 | 8
CCOC(=O)N1CCN(c2ccc(N3C[C@H](Cn4cc(C)nn4)OC3=O)cc2F)CC1 | 1
Cc1cn(C[C@H]2CN(c3ccc(N4CCN(C(=O)C5CC5)CC4)c(F)c3)C(=O)O2)nn1 | 2
Cc1cn(C[C@H]2CN(c3ccc(N4CCN(C(=O)CC(C)C)CC4)c(F)c3)C(=O)O2)nn1 | 4
CCCCC(=O)N1CCN(c2ccc(N3C[C@H](Cn4cc(C)nn4)OC3=O)cc2F)CC1 | 2
Cc1cn(C[C@H]2CN(c3ccc(N4CCN(C(=O)C5CCCC5)CC4)c(F)c3)C(=O)O2)nn1 | 4
Cc1cn(C[C@H]2CN(c3ccc(N4CCN(C(=O)c5ccccc5)CC4)c(F)c3)C(=O)O2)nn1 | 2
